- Experiment Notes: in vivo
- Design: species or system Beagle female dogs
- Experimental Setup: female, beagle, dog, po, 100 mg/kg, AUC0-24h (characterising range of the form)
- Protocol: Twelve 20 week pure-bred Beagle female dogs weighing between 5.0 and 7.5 kg, have been divided into three groups of four dogs. Each sample was transferred into an heparinized tube and was centrifuged; the plasma was divided into two 500 μl aliquots and frozen at −20° C. Tmax=time at which the Cmax is reached; AUC=area under the concentration-time curve calculated through the linear trapezoidal rule.
Measurement Type: AUC(0-t)

Recorded result, CO[C@H]1/C=C/O[C@@]2(C)Oc3c(C)c(O)c4c(O)c(c5c(nc6cc(C)ccn65)c4c3C2=O)NC(=O)/C(C)=C\C=C\[C@H](C)[C@H](O)[C@@H](C)[C@@H](O)[C@@H](C)[C@H](OC(C)=O)[C@@H]1C [rifaximin γ, Rifaximin] , AUC(0-t): < 22000 ng·h/mL

* * *

- Experiment Notes: in vivo
- Design: species or system Beagle female dogs
- Experimental Setup: female, beagle, dog, po, 100 mg/kg, tmax
Measurement Type: Tmax (h)
Respond numerically; units are h and should not be typed.

Sample CO[C@H]1/C=C/O[C@@]2(C)Oc3c(C)c(O)c4c(O)c(c5c(nc6cc(C)ccn65)c4c3C2=O)NC(=O)/C(C)=C\C=C\[C@H](C)[C@H](O)[C@@H](C)[C@@H](O)[C@@H](C)[C@H](OC(C)=O)[C@@H]1C [rifaximin α, Rifaximin] ; Tmax observed: 2.5

* * *

- Experiment Notes: in vivo
- Parameters: species or system Beagle female dogs
- Experimental Setup: female, beagle, dog, po, 300 mg/kg, tmax
Measurement Type: Tmax (h)
Answer in h, number only, no unit symbol.

// Tmax value for "CO[C@H]1/C=C/O[C@@]2(C)Oc3c(C)c(O)c4c(O)c(c5c(nc6cc(C)ccn65)c4c3C2=O)NC(=O)/C(C)=C\C=C\[C@H](C)[C@H](O)[C@@H](C)[C@@H](O)[C@@H](C)[C@H](OC(C)=O)[C@@H]1C" : 3

* * *

- Experiment Notes: in vivo
- Design: species or system Beagle female dogs
- Experimental Setup: female, beagle, dog, po, tmax (characterising range of the form)
Measurement Type: Tmax

Record "CO[C@H]1/C=C/O[C@@]2(C)Oc3c(C)c(O)c4c(O)c(c5c(nc6cc(C)ccn65)c4c3C2=O)NC(=O)/C(C)=C\C=C\[C@H](C)[C@H](O)[C@@H](C)[C@@H](O)[C@@H](C)[C@H](OC(C)=O)[C@@H]1C" , field Tmax: 1 to 6 h

* * *

- Experiment Notes: in vivo
- Design: species or system Beagle female dogs
- Experimental Setup: female, beagle, dog, po, 25 mg/kg, AUC0-24 h
Measurement Type: AUC(0-t)

Notebook: CO[C@H]1/C=C/O[C@@]2(C)Oc3c(C)c(O)c4c(O)c(c5c(nc6cc(C)ccn65)c4c3C2=O)NC(=O)/C(C)=C\C=C\[C@H](C)[C@H](O)[C@@H](C)[C@@H](O)[C@@H](C)[C@H](OC(C)=O)[C@@H]1C [rifaximin γ, Rifaximin] , AUC(0-t) read as 304 ng·h/mL

* * *

- Experiment Notes: in vivo
- Set-up: species or system Beagle female dogs
- Experimental Setup: female, beagle, dog, po, 100 mg/kg, tmax (characterising range of the form)
- Experimental: Twelve 20 week pure-bred Beagle female dogs weighing between 5.0 and 7.5 kg, have been divided into three groups of four dogs. Each sample was transferred into an heparinized tube and was centrifuged; the plasma was divided into two 500 μl aliquots and frozen at −20° C. Tmax=time at which the Cmax is reached; AUC=area under the concentration-time curve calculated through the linear trapezoidal rule.
Measurement Type: Tmax

For CO[C@H]1/C=C/O[C@@]2(C)Oc3c(C)c(O)c4c(O)c(c5c(nc6cc(C)ccn65)c4c3C2=O)NC(=O)/C(C)=C\C=C\[C@H](C)[C@H](O)[C@@H](C)[C@@H](O)[C@@H](C)[C@H](OC(C)=O)[C@@H]1C [rifaximin β, Rifaximin] the compound record lists Tmax as 1 to 6 h

* * *

- Experiment Notes: in vivo
- Design: species or system Beagle female dogs
- Experimental Setup: female, beagle, dog, po, 300 mg/kg, AUC0-24 h
- Method: Sixteen 20 week pure-bred Beagle female dogs weighing between 5.0 and 7.5 kg, have been divided into four groups of four dogs. Each sample was transferred into a heparinized tube and was centrifuged; the plasma was divided into 500 μl two aliquots and frozen at −20° C. Tmax=time at which the Cmax is reached; AUC=area under the concentration-time curve calculated through the linear trapezoidal rule.
Measurement Type: AUC(0-t) (ng·h/mL)
Hi! Could you send only the number? It should be in ng·h/mL, unit omitted.

What the record says about "CO[C@H]1/C=C/O[C@@]2(C)Oc3c(C)c(O)c4c(O)c(c5c(nc6cc(C)ccn65)c4c3C2=O)NC(=O)/C(C)=C\C=C\[C@H](C)[C@H](O)[C@@H](C)[C@@H](O)[C@@H](C)[C@H](OC(C)=O)[C@@H]1C" : AUC(0-t) is 25000

* * *

- Experiment Notes: in vivo
- Parameters: species or system Beagle female dogs
- Experimental Setup: female, beagle, dog, po, Cmax
Measurement Type: Cmax (ng/mL)
Write the answer as a number in ng/mL, unit excluded.

get_value(item= "CO[C@H]1/C=C/O[C@@]2(C)Oc3c(C)c(O)c4c(O)c(c5c(nc6cc(C)ccn65)c4c3C2=O)NC(=O)/C(C)=C\C=C\[C@H](C)[C@H](O)[C@@H](C)[C@@H](O)[C@@H](C)[C@H](OC(C)=O)[C@@H]1C" , readout=Cmax) returns 1080

* * *

- Experiment Notes: in vivo
- Set-up: species or system Beagle female dogs
- Experimental Setup: female, beagle, dog, po, 300 mg/kg, Cmax
Measurement Type: Cmax (ng/mL)
Quick reminder: number only, in ng/mL, skip the unit.

Sample CO[C@H]1/C=C/O[C@@]2(C)Oc3c(C)c(O)c4c(O)c(c5c(nc6cc(C)ccn65)c4c3C2=O)NC(=O)/C(C)=C\C=C\[C@H](C)[C@H](O)[C@@H](C)[C@@H](O)[C@@H](C)[C@H](OC(C)=O)[C@@H]1C [rifaximin γ, Rifaximin] ; Cmax observed: 3150

* * *

- Experiment Notes: in vivo
- Design: species or system Beagle female dogs
- Experimental Setup: female, beagle, dog, po, 25 mg/kg, AUC0-inf
Measurement Type: AUC(0-inf) (ng·h/mL)
State the answer as a number, implicitly in ng·h/mL.

Item: "CO[C@H]1/C=C/O[C@@]2(C)Oc3c(C)c(O)c4c(O)c(c5c(nc6cc(C)ccn65)c4c3C2=O)NC(=O)/C(C)=C\C=C\[C@H](C)[C@H](O)[C@@H](C)[C@@H](O)[C@@H](C)[C@H](OC(C)=O)[C@@H]1C" | AUC(0-inf): 548

* * *

- Experiment Notes: in vivo
- Design: species or system Beagle female dogs
- Experimental Setup: female, beagle, dog, po, 25 mg/kg, Cmax
Measurement Type: Cmax (ng/mL)
Please reply with the bare figure in ng/mL and do not write the unit itself.

The compound "CO[C@H]1/C=C/O[C@@]2(C)Oc3c(C)c(O)c4c(O)c(c5c(nc6cc(C)ccn65)c4c3C2=O)NC(=O)/C(C)=C\C=C\[C@H](C)[C@H](O)[C@@H](C)[C@@H](O)[C@@H](C)[C@H](OC(C)=O)[C@@H]1C" showed Cmax equal to 114

* * *

- Experiment Notes: in vivo
- Parameters: species or system Beagle female dogs
- Experimental Setup: female, beagle, dog, po, 25 mg/kg, tmax
Measurement Type: Tmax
Could you write the number and then its unit?

Tmax reported for this compound "CO[C@H]1/C=C/O[C@@]2(C)Oc3c(C)c(O)c4c(O)c(c5c(nc6cc(C)ccn65)c4c3C2=O)NC(=O)/C(C)=C\C=C\[C@H](C)[C@H](O)[C@@H](C)[C@@H](O)[C@@H](C)[C@H](OC(C)=O)[C@@H]1C" : 1.5 h
